Origin of measurements: paper PMC8020832

SYSTEM UNDER TEST: 18 Env antigens
ASSAY PROTOCOL: ELISA
READOUT: mean fold change in ELISA binding titer (OD450) versus parental 2411a

# BINDER, RESULT
rows = [
    ("2411a revertant of heavy chain G56A/T57V (CDR H2) (antibody, V domains shown) VH: QVQLVQSGAEMKKPGASVRVSCEASGYTFTDYVLHWMRQAPGQGIEWLGWIKPRYGGTNYAHKFQGRVSMTRDTSIDTAYLELINLRSDDTAIYYCARSFDSDYEWWFTYWGQGTLVSVSA VL: EIVLTQSPGTLSLSPGERATLSCRASYFISRDYLAWYQQRPGQAPKLLIYGTTTRASGIPDRFSGSGSGTDFTLTISRLEPEDFAVYYCQQYEFFGLGTKVEIK", "5.5 fold"),
]
